- Target Under Test: Muscarinic acetylcholine receptor M5 (Homo sapiens)
- Sequence (P08912 whole entry): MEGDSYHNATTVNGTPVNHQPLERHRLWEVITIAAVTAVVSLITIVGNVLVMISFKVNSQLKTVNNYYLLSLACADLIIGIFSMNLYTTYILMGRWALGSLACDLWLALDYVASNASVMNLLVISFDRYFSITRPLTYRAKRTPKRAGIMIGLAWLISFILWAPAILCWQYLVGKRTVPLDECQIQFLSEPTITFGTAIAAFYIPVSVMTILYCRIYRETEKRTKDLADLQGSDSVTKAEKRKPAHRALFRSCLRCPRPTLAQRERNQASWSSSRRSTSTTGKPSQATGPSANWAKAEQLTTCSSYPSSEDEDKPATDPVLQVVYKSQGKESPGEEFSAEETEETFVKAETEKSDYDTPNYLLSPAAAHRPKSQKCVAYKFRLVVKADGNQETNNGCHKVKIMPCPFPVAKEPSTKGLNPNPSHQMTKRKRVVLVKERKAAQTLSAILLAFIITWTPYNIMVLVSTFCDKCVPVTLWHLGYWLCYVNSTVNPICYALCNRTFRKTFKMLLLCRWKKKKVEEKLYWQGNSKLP
pKi: −log10 of the molar value.
Measured Metric: pKi

[[record]]
molecule = "CN1CCC2C(C1)c1cccc3c1N2c1ccccc1CS3 (stereo unspecified)"
measured_metric = "pKi"
measured_number = 6.10


---

- Target Under Test: 5-hydroxytryptamine receptor 5A (Homo sapiens)
- Sequence (P47898 whole entry): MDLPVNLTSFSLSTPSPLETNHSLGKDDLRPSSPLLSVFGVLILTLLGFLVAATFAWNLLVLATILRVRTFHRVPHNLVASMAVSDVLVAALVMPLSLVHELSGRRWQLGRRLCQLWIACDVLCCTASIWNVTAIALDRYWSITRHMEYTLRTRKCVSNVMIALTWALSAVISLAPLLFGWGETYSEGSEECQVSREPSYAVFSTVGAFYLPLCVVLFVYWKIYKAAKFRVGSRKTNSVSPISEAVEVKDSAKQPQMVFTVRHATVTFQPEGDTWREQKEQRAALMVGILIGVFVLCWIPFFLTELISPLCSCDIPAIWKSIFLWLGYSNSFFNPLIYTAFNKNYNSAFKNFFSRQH
Measured Metric: Ki

[[record]]
compound = "Cc1cc2c(s1)Nc1ccccc1N=C2N1CCN(C)CC1 [OLANZAPINE]"
measured_metric = "Ki"
result = "> 1000 nM"

[[record]]
compound = "CN1CCN(C2=Nc3cc(Cl)ccc3Nc3ccccc32)CC1 [CLOZAPINE]"
measured_metric = "Ki"
result = "> 1000 nM"


---

- Target Under Test: Muscarinic acetylcholine receptor M1 (Homo sapiens, UniProt P11229)
- Sequence (P11229 whole entry): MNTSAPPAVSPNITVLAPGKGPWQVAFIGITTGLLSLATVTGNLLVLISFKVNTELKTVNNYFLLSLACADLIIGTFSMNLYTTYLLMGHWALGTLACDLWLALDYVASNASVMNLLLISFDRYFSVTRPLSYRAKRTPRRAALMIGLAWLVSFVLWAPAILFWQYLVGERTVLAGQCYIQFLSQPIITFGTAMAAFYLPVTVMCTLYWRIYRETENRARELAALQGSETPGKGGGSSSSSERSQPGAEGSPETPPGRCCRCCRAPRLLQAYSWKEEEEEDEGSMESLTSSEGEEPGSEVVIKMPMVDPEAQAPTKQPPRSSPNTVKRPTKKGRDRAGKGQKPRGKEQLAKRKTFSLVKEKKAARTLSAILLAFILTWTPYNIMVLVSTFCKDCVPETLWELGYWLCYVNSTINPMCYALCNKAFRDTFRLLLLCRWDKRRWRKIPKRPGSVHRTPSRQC
pKi: −log10 of the molar value.
Measured Metric: pKi

[[record]]
compound = "CN1CCC2C(C1)c1cccc3c1N2c1ccccc1CS3 (stereo unspecified)"
result = "< 6.00"

